Values compiled from patent US10144715B2.

Molecular target: UniProt:Q13133
Test: Human LXRα coactivator recruitment FRET assay, agonist mode
Assay type: biochemical
Settings: Biological Test Example 3, agonist mode
Readout Kind: FRET LXRα efficacy (%)
Answers are plain numbers, in %.

# example entries with known answers
{"Compound": "CS(=O)(=O)c1cc(N2CCN(C[C@H]3CC[C@@H](C(F)(F)F)CC3)[C@@H](c3ccc(F)cc3)C2)ccc1F [48-48]", "Measure Unit": "%", "Result Value": 42}
{"Compound": "CS(=O)(=O)c1cc(N2CCN(C[C@H]3CC[C@H](C(F)(F)F)CC3)[C@H](c3ccccc3)C2)ccc1C#N (single isomer, unassigned) [50-3]", "Measure Unit": "%", "Result Value": 71}

Please look at the following compound next.
Response field FRET LXRα efficacy (UniProt:Q13133) for item CS(=O)(=O)c1cccc(N2CCN(C[C@H]3CCN(CC(F)(F)F)C3)[C@@H](c3ccccc3)C2)c1 (single isomer, unassigned) [48-63] : 14

====

Biological target: Gal4 DNA binding domain fused to the LBD of LXRα in HEK293 cells (Homo sapiens (Human), UniProt Q13133)
Sequence (Q13133 209-447): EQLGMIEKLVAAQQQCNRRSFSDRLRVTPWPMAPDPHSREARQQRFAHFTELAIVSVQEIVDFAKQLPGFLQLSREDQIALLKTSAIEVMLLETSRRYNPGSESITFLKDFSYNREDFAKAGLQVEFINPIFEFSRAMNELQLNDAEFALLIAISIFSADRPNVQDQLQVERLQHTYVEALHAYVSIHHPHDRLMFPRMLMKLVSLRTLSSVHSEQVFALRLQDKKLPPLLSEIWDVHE
Assay: LXR luciferase transcriptional reporter gene assay, antagonist mode (200 nM T0901317), LXRα
Format: cell-based
For each entry below, report its Cell LXRα efficacy value.

Can you give me Cell LXRα efficacy for all of these, one by one?
1. CS(=O)(=O)c1cccc(N2CCN(C[C@H]3CC[C@H](C(F)F)CC3)[C@@H](c3ccccc3)C2)c1 (single isomer, unassigned)
2. Cc1ccc(CN2CCN(c3cccc(S(C)(=O)=O)c3)C[C@@H]2c2ccccc2)cc1 (single isomer, unassigned)
3. CS(=O)(=O)c1cc(N2CCN(C[C@H]3CC[C@@H](C(F)(F)F)CC3)[C@@H](c3ccccc3)C2)ccc1C(N)=O (single isomer, unassigned)
4. Cc1ccc(N2CCN(c3cccc(S(C)(=O)=O)c3)C[C@H]2C(C)C)nc1C1CC1
5. Cc1ccc(C2CC2)nc1N1CCN(c2cccc(S(C)(=O)=O)c2)C[C@H]1C(C)C
6. CC(C)c1ccc(CN2CCN(c3cccc(S(C)(=O)=O)c3)C[C@@H]2c2ccccc2)cc1
7. NS(=O)(=O)c1cccc(N2CCN(C[C@H]3CC[C@@H](C(F)F)CC3)[C@@H](c3ccccc3)C2)c1 (single isomer, unassigned)

OUTPUT:
1. 1630 (67) %
2. 957 (105) %
3. 9842 (125) %
4. 792 (80) %
5. 2454 (90) %
6. 8904 (282) %
7. 4955 (123) %

Can you give me Cell LXRα efficacy for all of these, one by one?
1. CC(C)[C@@H]1CN(c2cccc(S(C)(=O)=O)c2)CCN1c1ccnc(C(F)(F)F)n1
2. CC(O)c1cnc(N2CCN(c3ccc(F)c(S(C)(=O)=O)c3)C[C@H]2C(C)C)nc1C(F)(F)F (mixture of isomers)
3. CCCCN(C)C(=O)c1cnc(N2CCN(c3ccc(F)c(S(C)(=O)=O)c3)C[C@H]2C(C)C)nc1C(F)(F)F

OUTPUT:
["4587 (78) %", "8047 (105) %", "501 (94) %"]

Can you give me Cell LXRα efficacy for all of these, one by one?
1. CC(C)[C@@H]1CN(c2ccc(F)c(S(C)(=O)=O)c2)CCN1c1ncc(Cc2ccc(C(C)(C)O)cc2)c(C(F)(F)F)n1
2. CS(=O)(=O)c1cccc(N2CCN(C[C@H]3CC[C@@](C)(O)CC3)[C@@H](c3ccccc3)C2)c1 (single isomer, unassigned)
3. CS(=O)(=O)c1cccc(N2CCN(C[C@@H]3CCN(CC(F)(F)F)C3)[C@@H](c3ccccc3)C2)c1 (single isomer, unassigned)
4. CC(C)[C@@H]1CN(c2ccc(F)c(S(C)(=O)=O)c2Cl)CCN1c1ncc(Cl)c(C2CC2)n1

OUTPUT:
1. 443 (98) %
2. 1169 (61) %
3. 870 (56) %
4. 3610 (83) %
